measurementTarget: Calmodulin-1 (Homo sapiens) (UniProt P0DP23)
experimentalDetails: calcium-bound CALM1 binders on microarrays, profiling panel, artefact control for SMM control-protein annotation, biochemical, small-molecule microarray, Cy5-labelled CALM1, plus calcium (AID 1112);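 note: score merges spot fluorescence with signal to noise from triplicate slides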
condition: Cy5-CALM1 binding fluorescence, higher = more signal
valueKind: composite z-score
Just the number, please.

Given the compound C[C@H]1CC[C@@H](C(=O)O)N[C@@H]1c1ccc(C#Cc2ccccc2)cc1 , what is its reported composite z-score? -0.332

Further, for COC(=O)CC=C[C@@H](C)[C@@H](C=NOC(C)CN1CCCCc2nc(C)c(C)cc21)OC (some centres not stated) ? -1.05

And the next one, CC(CCN1CCCc2nc(C)c(C)cc21)=NO[C@@H](C)c1cn([C@H](CO)Cc2ccccc2)nn1 ? -0.671

For COc1ccc(OC[C@@H]2CC3[C@@H](c4ccc(Br)cc4)[C@H](C)CC[C@H]3C(=O)O2)cc1 (some centres not stated) then? -0.642

Thanks! And COC(=O)[C@H](C)NC(=O)CCC1CC(OC(=O)NCc2cccc3ccccc23)CC2(CCCC(COC(=O)NCc3cccc(C(F)(F)F)c3)O2)O1 (some centres not stated) ? 0.269

For CC(=O)OC[C@H]1O[C@H](CC=NOC[C@@H](O)[C@H]2O[C@@H]3OC(C)(C)O[C@@H]3[C@H]2O)C=C[C@@H]1OC(C)=O then? 0.249

Next compound up: C#CCCCON=C1C[C@@H](O)[C@@H](O)[C@@H]2[C@@H]3C(=O)N(CC)C(=O)[C@@H]3CC[C@H]12 -0.304

And then CCOC(=O)[C@H](CC(C)C)NC(=O)CCC1CC(OC(=O)NCCc2ccc(F)cc2)CC2(CCCC(COC(=O)NCCCN3CCCC3=O)O2)O1 (some centres not stated) , what is it? -0.0004

How about this compound: CO[C@H]1COC(=O)CCC[C@H](C)[C@@H](OC)COC(=O)CC=C[C@@H]1C -1.1

Also, CO[C@@H]1C=CCC(=O)N[C@@H](C)C(=O)OC[C@@H](OC)[C@H](C)C=CCC(=O)OC[C@H]1C please. -1.96

Also need CON=C[C@@H](OC)[C@H](C)C=CCC(=O)OC , thanks. -0.476

// same read-out, input: C=CC[C@@H]1C=C[C@H](ON=C(C)CCN2CCCc3nc(C)c(C)cc32)[C@@H](CO)O1 -1.43

Next up: O=C1C2=CC[C@H]3C(=O)N(c4ccc(F)cc4F)C(=O)[C@H]3[C@H]2[C@H](O)[C@@H]2O[C@H]12 -0.773

Record: COC(=O)[C@H](C)NC(=O)CCC1CC(OC(=O)NCc2cccc3ccccc23)CC2(CCCC(COC(=O)NCCc3ccccc3OC)O2)O1 (some centres not stated) -0.37

Please do the same for COc1ccc(O[C@H]2C=C[C@@H](c3ccccc3)O[C@@H]2CON=C2c3cc(OC)ccc3O[C@H](c3cccc(OC)c3)[C@H]2O)cc1 as well. 0.335

Now the same for CCOC(=O)[C@H](Cc1ccccc1)NC(=O)CCC1CC(OC(=O)NCc2cccc3ccccc23)CC2(CCCC(COC(=O)NCC3CCCCC3)O2)O1 (some centres not stated) -0.525

And COC(=O)CC=C1c2ccccc2[C@H](OC)[C@H]1C ? -0.746

# iterate: Cc1cc2c(nc1C)CCCCN2CC(O)CN1CCCc2nc(-c3ccc(Br)cc3)ccc21 (configuration not stated) -0.823

// next record C=CC[C@@H]1C=C[C@H](ON=C2C[C@@H](O)[C@@H](O)[C@@H]3[C@@H]4C(=O)N(CC)C(=O)[C@@H]4CC[C@@H]23)[C@@H](CO)O1 -0.777

Also C#CCCCON=C1[C@H]2CCn3c(=O)n([C@@H](CC)c4ccccc4)c(=O)n3[C@H]2[C@H](O)[C@@H]2O[C@H]12 ? -0.483

And what about the compound CON=C(C)CCN1CCCCc2nc(C)c(C)cc21 ? -0.817

How about CCOC(=O)[C@H](CC(C)C)NC(=O)CCC1CC(OC(=O)NCc2ccc3c(c2)OCO3)CC2(CCCC(COC(=O)NCCc3ccccc3OC)O2)O1 (some centres not stated) ? -0.375

Similarly, O=C1C[C@@H](O)[C@@H](O)[C@@H]2[C@@H]3C(=O)N(C4CCCCC4)C(=O)[C@@H]3CC[C@@H]12 ? -0.397

Again, but for CCOC(=O)[C@H](CC(C)C)NC(=O)CCC1CC(OC(=O)NCCc2ccc(F)cc2)CC2(CCCC(COC(=O)NCCOC)O2)O1 (some centres not stated) -0.119

Try this compound too: O=C1CCCC=C1C(O)COCc1ccccc1 (configuration not stated) -1.3

Next compound up: CO[C@@H](C(C)C)[C@@H](C)C1OC(=O)CC1O (some centres not stated) 0.192

Now consider CO[C@H]1COC(=O)[C@H](CCSC)NC(=O)CC=C[C@@H](C)[C@H](OC)COC(=O)[C@@H](OCc2ccccc2)C=C[C@@H]1C . -1.69

Now consider COc1ccc(O[C@H]2C=C[C@@H](c3ccccc3)O[C@@H]2COC(=O)NCc2cccc3ccccc23)cc1 and answer again. -0.329

Same thing, different compound: COC(=O)[C@H](C)NC(=O)CCC1CC(OC(=O)NCc2ccc3c(c2)OCO3)CC2(CCCC(COC(=O)NCCc3ccc(Cl)cc3)O2)O1 (some centres not stated) -0.97

Next up: CON(C)C(=O)c1nnc2c(n1)[nH]c1ccccc12 -0.229

Repeat for the following compound: COC(=O)CC=C[C@@H](C)[C@@H](C=NOC[C@@H](C)[C@H](OCc1ccccc1)C(C)C)NS(=O)(=O)c1ccc(C)cc1 -1.26

What do you get for CC(C)=CCCC(C)=CCON=C1C[C@@H](O)[C@@H](O)[C@@H]2[C@@H]3C(=O)N([C@@H](C)c4ccccc4)C(=O)[C@@H]3CC[C@@H]12 ? -0.406
